B1: VH:VL chains; a variant is named by its letters at X, in order (parent)
chain 1: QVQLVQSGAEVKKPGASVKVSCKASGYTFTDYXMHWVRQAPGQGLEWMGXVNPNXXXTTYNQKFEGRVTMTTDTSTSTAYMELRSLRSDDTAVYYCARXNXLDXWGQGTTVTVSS
chain 2: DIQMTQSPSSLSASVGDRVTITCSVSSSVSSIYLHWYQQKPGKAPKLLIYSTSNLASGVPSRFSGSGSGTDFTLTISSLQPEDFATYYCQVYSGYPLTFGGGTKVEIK

variants of: B1; assay: yeast display scFab, FACS + sequencing
RESULT TYPE: non-specific binding call

Before answering, review these 5 worked examples.
VARIANT DESCRIPTION	MEASURED
YRRGSSAA	binds
YKGRGAAY	binds
YRRRGSLY	binds
VGGTSSAD	no binding
FRGRGSLV	binds

Q: If you can, please state the reported non-specific binding call value of DTGTGSVD .
A: no binding

Q: If you can, please state the reported non-specific binding call value of YRGKSAAV .
A: binds

Q: If you can, please state the reported non-specific binding call value of VRGKGSSD .
A: no binding

Q: If you can, please state the reported non-specific binding call value of YKGRDDVA .
A: no binding

Q: If you can, please state the reported non-specific binding call value of FTKASYVY .
A: binds

Q: If you can, please state the reported non-specific binding call value of DRRGDSLV .
A: no binding

Q: If you can, please state the reported non-specific binding call value of YRGRDFVD .
A: binds

Q: If you can, please state the reported non-specific binding call value of YKGRGASA .
A: binds

Q: If you can, please state the reported non-specific binding call value of YKAGGFGA .
A: binds

Q: If you can, please state the reported non-specific binding call value of SRGRGSVD .
A: binds

Q: If you can, please state the reported non-specific binding call value of FKGRGSAA .
A: binds

Q: If you can, please state the reported non-specific binding call value of YTRGASWV .
A: no binding

Q: If you can, please state the reported non-specific binding call value of YETGNVWF .
A: no binding
